Values were extracted from the supplement of paper PMC7877785.

ASSAY REMARKS: self-splicing fitness, log relative to wild type (ln ratio); higher = more splicing; Tetrahymena group I intron in knt gene, E. coli kanamycin selection, DiMSum; sequences stand for … in CUCUCU…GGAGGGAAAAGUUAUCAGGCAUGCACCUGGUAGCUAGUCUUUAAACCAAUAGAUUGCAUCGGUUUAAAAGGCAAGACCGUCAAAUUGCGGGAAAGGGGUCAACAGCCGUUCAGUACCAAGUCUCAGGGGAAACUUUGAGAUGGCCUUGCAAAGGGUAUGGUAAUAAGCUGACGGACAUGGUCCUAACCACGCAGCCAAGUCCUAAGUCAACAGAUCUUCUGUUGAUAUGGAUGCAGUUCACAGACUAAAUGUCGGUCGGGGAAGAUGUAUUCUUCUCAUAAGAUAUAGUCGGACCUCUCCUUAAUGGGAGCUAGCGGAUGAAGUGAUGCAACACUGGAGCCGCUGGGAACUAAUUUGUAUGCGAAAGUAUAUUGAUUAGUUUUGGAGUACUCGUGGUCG;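 note: selection with 25 µg/mL kanamycin versus none on LB agar overnight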
ASSAY CONDITIONS: 37 °C
Label not fulfilled if self-splicing fitness (ln) falls below -2; label fulfilled in every other case.

SEQUENCE CHAIN | GROUP
GGUCAGCAAUAUUACGUGGU | not fulfilled
UAGUAGCAAUAUUACGCCUC | fulfilled
AUGUAGCAAUAUUACGUUAG | not fulfilled
CGAUAGCAAUAUUACGGUCU | fulfilled
AGCUAGCAAUAUUACGCUCU | fulfilled
GCUGAGCAAUAUUACGAACA | not fulfilled
GCUAAGCAAUAUUACGGAAU | fulfilled
